Biological target: Nav1.7 (or SCN9A) channel (Homo sapiens, UniProt Q15858)
Sequence (Q15858 whole entry): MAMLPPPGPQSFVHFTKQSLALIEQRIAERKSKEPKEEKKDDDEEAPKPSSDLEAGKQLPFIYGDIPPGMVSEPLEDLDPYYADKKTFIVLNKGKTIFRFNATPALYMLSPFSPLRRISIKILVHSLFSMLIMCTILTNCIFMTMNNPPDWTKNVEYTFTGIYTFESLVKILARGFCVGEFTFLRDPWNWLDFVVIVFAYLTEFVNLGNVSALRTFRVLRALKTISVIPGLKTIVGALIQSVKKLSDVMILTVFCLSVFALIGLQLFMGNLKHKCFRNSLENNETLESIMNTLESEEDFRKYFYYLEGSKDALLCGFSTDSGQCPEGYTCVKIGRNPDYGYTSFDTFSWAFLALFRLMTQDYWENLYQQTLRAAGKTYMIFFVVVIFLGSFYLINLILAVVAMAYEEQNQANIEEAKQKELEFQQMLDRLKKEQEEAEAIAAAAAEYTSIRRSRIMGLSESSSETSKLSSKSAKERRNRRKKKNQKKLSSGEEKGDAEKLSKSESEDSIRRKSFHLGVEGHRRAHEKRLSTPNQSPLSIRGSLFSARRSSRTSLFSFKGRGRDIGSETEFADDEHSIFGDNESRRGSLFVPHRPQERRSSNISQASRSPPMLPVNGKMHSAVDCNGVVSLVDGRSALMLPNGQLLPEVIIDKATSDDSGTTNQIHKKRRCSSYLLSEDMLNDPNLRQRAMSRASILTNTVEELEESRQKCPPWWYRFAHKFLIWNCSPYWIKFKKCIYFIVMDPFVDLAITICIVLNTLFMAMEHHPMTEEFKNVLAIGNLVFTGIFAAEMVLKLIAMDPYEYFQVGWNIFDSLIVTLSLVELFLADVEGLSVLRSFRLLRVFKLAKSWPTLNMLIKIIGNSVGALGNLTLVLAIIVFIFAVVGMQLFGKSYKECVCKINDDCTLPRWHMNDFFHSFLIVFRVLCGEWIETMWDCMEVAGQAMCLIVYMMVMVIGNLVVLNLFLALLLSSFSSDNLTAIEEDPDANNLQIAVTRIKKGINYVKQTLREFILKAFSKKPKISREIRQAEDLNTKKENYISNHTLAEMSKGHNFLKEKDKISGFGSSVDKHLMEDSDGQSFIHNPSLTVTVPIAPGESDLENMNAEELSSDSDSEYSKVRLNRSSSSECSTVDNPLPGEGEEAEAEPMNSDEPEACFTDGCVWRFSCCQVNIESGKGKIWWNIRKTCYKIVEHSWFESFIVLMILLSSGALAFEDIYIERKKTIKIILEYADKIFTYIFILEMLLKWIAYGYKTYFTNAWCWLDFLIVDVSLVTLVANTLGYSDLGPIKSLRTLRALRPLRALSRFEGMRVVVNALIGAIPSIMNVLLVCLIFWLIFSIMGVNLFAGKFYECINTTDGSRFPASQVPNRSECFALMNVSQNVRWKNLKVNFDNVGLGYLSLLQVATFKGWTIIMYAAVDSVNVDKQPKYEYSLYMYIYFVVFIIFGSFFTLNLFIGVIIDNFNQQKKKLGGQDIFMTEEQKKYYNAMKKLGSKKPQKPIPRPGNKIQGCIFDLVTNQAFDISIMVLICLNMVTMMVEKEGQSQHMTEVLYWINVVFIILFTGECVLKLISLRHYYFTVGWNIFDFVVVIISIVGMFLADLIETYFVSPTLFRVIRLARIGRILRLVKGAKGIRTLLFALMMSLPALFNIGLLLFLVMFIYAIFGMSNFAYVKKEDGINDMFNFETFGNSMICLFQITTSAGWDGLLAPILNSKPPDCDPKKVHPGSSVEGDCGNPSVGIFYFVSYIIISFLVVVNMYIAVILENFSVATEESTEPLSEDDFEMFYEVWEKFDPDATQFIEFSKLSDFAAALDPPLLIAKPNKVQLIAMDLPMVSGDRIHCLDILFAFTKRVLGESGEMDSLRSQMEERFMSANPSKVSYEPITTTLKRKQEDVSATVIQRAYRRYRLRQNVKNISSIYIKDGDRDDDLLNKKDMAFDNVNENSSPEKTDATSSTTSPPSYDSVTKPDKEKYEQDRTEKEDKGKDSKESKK
Test: Nav1.7 (hSCN9A) whole-cell electrophysiology, PatchXpress platform
Details: HEK cells stably expressing hSCN9A, held at V1/2 of inactivation, calculated from single point % inhibition, read-out: Nav1.7 EIC50 (estimated IC-50)
Structures can show the parent of a compound that is named as a salt.
Quantity Measured: pIC50
Quick note: pIC50 means taking -log10 of the concentration in moles per liter.

Query O=S(=O)(Nc1cscn1)c1cc(Cl)c(Oc2ccc(OC(F)(F)F)cc2-c2ccnnc2)cc1F [Example 12, trifluoroacetate] on Nav1.7 (or SCN9A) channel (Homo sapiens, UniProt Q15858); pIC50 returned: 7.84

I looked up Nc1cc(-c2cc(C(F)(F)F)ccc2Oc2cc(F)c(S(=O)(=O)Nc3ncc(F)cn3)cc2Cl)ccn1 [Example 6, 4-methylbenzenesulfonate] and its pIC50 for Nav1.7 (or SCN9A) channel (Homo sapiens, UniProt Q15858) was 8.07

The compound O=S(=O)(Nc1cscn1)c1cc(F)c(Oc2ccc(Cl)cc2-c2ccnc(N3CCNCC3)n2)cc1F [Example 17, trifluoroacetate] on Nav1.7 (or SCN9A) channel (Homo sapiens, UniProt Q15858): pIC50 was 8.00
